Hello, the source for this data is paper PMC8041433, in case you need it.

molecular target: recombinant human AChE (Homo sapiens); assay: biochemical
Structures can show the parent of a compound that is named as a salt.
propertyMeasured: IC50 (µM)
Numbers only, in µM.

Take a look at these entries with their results.
1) CCN1CCCC1CNC(=O)c1cc(S(=O)(=O)CC)c(N)cc1OC (centres unmarked) [Amisulpride, reference compound]: 24.3
2) CNC(=O)Oc1cccc2c1OC(C)(C)C2: 0.23
3) CCCCOc1ccc(C(=O)CCN2CCCCC2)cc1 [Dyclonine HCl, reference compound]: 26.8
4) CN1CCc2cc(Cl)c(O)cc2[C@H]2c3ccccc3CC[C@@H]21 [Ecopipam, reference compound]: 32.7
5) O=C(Nc1cccc(C2=NCCN2)c1)Nc1cccc(C2=NCCN2)c1 [Imidocarb dipropionate, reference compound]: 25.7
6) CNC(=C[N+](=O)[O-])NCCSCc1csc(CN(C)C)n1 [Nizatidine, reference compound]: 15.6
7) Cl.Clc1cc(Cl)c2c(c1)N=C1CCCCCN1C2: 1.54

Find the measured IC50: item CCOP(=S)(OCC)Oc1ccc([N+](=O)[O-])cc1 , target or system recombinant human AChE (Homo sapiens).
18

----------
target: AChE in neural stem cells (Homo sapiens, UniProt P22303); assay: cell-based
pIC50: −log10 of the molar value. Structures can show the parent of a compound that is named as a salt.
Would you mind labelling by pIC50? At or over 5 is true (1), under is false (0).

1. CCOP(=S)(OCC)SCSC(C)(C)C: true (1)
2. COP(=S)(Oc1cc(Cl)c(Br)cc1Cl)c1ccccc1 (stereo not drawn): false (0)
3. CN1CCCC(n2nc(Cc3ccc(Cl)cc3)c3ccccc3c2=O)CC1 (stereo not drawn) [Azelastine (hydrochloride), reference compound]: false (0)
4. CCOC(=O)CC(SP(=O)(OC)OC)C(=O)OCC (stereo not drawn): true (1)
5. CNC(=O)O/N=C(\SC)C(=O)N(C)C: true (1)

Does the compound Cc1nc(N(C)C)nc(OC(=O)N(C)C)c1C have recorded pIC50 that is 5 or more?
true (1)

Is reported pIC50 greater than or equal to 5 here: CS/C(C)=N\OC(=O)N(C)SN(C)C(=O)O/N=C(\C)SC
true (1)

Is reported pIC50 greater than or equal to 5 here: CNC(=O)Oc1ccccc1C(C)C
false (0)

----------
target: AChE in SH-SY5Y cells (Homo sapiens); assay: cell-based; conditions: IC50 (uM)
Structures can show the parent of a compound that is named as a salt.
Kindly supply the reported IC50 values for the records listed here.
Give bare numbers, in µM.

1. CCOP(=S)(OCC)OC(Cl)C(Cl)(Cl)Cl (stereo not drawn) [Chlorethoxyfos]: 35.6
2. CN(CCOc1ccc(NS(C)(=O)=O)cc1)CCc1ccc(NS(C)(=O)=O)cc1 [Dofetilide]: 17.4
3. O=c1[nH]c2ccc([S+]([O-])CCN3CCC(Cc4ccc(F)cc4)CC3)cc2o1 (stereo not drawn) [Besonprodil, reference compound]: 6.33
4. CCOP(=S)(OCC)Oc1cnc2ccccc2n1 [Quinalphos]: 35.6
5. COP(=S)(OC)Oc1nc(Cl)c(Cl)cc1Cl [Chlorpyrifos-methyl]: 63.3

Look up IC50 for the entries below, preserving their order.
1. CCOP(=S)(OCC)SCSC(C)(C)C [Terbufos]
2. COCCCN1CCC(NC(=O)c2cc(Cl)c(N)c3c2OCC3)CC1 [Prucalopride]
3. CCOP(=S)(OCC)SC(CCl)N1C(=O)c2ccccc2C1=O (stereo not drawn) [Dialifor]
4. CCOP(=S)(OCC)SCSc1ccc(Cl)cc1 [Carbophenothion]
5. CC(=O)Oc1cc(C(C)C)c(OCCN(C)C)cc1C [Moxisylyte hydrochloride, reference compound]
6. Cc1cc(OC(=O)N(C)C)nn1C(=O)N(C)C [Dimetilan]
7. COP(N)(=S)Oc1ccccc1C(=O)OC(C)C (stereo not drawn) [Isocarbophos]

89.4
17.4
31.7
89.4
13.8
7.1
89.4

----------
target: AChE in SH-SY5Y cells (Homo sapiens, UniProt P22303); assay: cell-based; conditions: read-out: IC50
Sequence (P22303 32-614): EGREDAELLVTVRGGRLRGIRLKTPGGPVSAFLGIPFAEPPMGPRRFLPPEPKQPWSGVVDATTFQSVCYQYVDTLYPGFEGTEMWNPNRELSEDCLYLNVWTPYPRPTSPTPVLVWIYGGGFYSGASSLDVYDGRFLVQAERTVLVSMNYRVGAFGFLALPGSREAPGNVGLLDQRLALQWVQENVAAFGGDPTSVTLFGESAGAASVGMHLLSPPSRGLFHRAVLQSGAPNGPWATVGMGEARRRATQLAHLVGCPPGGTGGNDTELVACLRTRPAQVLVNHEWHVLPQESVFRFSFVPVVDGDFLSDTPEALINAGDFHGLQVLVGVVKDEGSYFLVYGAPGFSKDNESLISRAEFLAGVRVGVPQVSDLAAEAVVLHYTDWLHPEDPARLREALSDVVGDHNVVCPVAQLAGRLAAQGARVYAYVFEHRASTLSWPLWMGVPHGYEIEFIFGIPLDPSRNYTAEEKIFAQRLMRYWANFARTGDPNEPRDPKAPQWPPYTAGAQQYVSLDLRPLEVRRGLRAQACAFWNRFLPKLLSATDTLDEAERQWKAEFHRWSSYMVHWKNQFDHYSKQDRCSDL
propertyMeasured: IC50

1) Cl.O=C(c1ccc(F)cc1)C1CCN(CCn2c(=S)[nH]c3ccccc3c2=O)CC1 [Altanserin hydrochloride]: 13.8 µM
2) COP(=O)(OC)O/C(=C\Cl)c1cc(Cl)c(Cl)cc1Cl: 44.8 µM

Here are 2 molecules. What values of IC50 were reported for them?
1. CN(C)c1ccc(C(=C2C=CC(=[N+](C)C)C=C2)c2ccc(N(C)C)cc2)cc1.[Cl-] [Methylrosaniline chloride]
2. CCOP(=S)(OCC)OC(Cl)C(Cl)(Cl)Cl (stereo not shown)

1: 38.9 µM; 2: 31.7 µM

----------
Exercise: for every item that follows, state its recorded Efficacy.
biological target: recombinant human AChE (Homo sapiens); experiment: biochemical
Where a name gives a salt, the structure may show the parent alone.

// solved cases for Efficacy follow
1) COP(=S)(OC)Oc1nc(Cl)c(Cl)cc1Cl [Chlorpyrifos-methyl]: 0
2) Cc1ccc(CCn2c3c(c4cc(Cl)ccc42)CN(C)CC3)cn1 [Dorastine]: -32.475
3) CNC(=O)ON=C(C)SC [Methomyl]: -92.651
4) COc1cc(N)c(Cl)cc1C(=O)NC1CN2CCC1CC2.Cl (stereo not drawn) [Zacopride hydrochloride]: 0
5) Nc1ccc(N)c(Cl)c1.O=S(=O)(O)O [2-Chloro-1,4-diaminobenzene sulfate]: -68.64
6) CCOP(=S)(OCC)OC(Cl)C(Cl)(Cl)Cl (stereo not drawn) [Chlorethoxyfos]: -89.198
7) CNC(=O)O/N=C(\C)C(C)S(C)(=O)=O (stereo not drawn) [Butoxycarboxim]: -49.747
8) COCCCOc1ccnc(C[S+]([O-])c2nc3ccccc3[nH]2)c1C (stereo not drawn) [Rabeprazole sodium]: -15.052

# batch: return Efficacy for each of the 7 molecules below
1. COCCCN1CCC(NC(=O)c2cc(Cl)c(N)c3c2OCC3)CC1 [Prucalopride]
2. O=C(O)/C=C\C(=O)O.O=C(O)/C=C\C(=O)O.c1cc(CN2CCCCC2)cc(OCCCNc2nc3ccccc3s2)c1 [Zolantidine dimaleate]
3. Cl.O=C(c1ccc(F)cc1)C1CCN(CCn2c(=S)[nH]c3ccccc3c2=O)CC1 [Altanserin hydrochloride]
4. CCOP(=S)(Oc1cnc(C(C)(C)C)nc1)OC(C)C (stereo not drawn) [Tebupirimfos]
5. Cc1cc(N)c2cc(NC(=O)Nc3ccc4nc(C)cc(N)c4c3)ccc2n1.Cl.Cl [Aminoquinuride dihydrochloride]
6. N=C(N)NC(=O)c1nc(Cl)c(N)nc1N [Amiloride hydrochloride]
7. Cc1c(Cl)c(=O)oc2cc(OP(=O)(OCCCl)OCCCl)ccc12 [Haloxon]

-37.421
-71.468
0
-96.664
-15.256
-15.372
-92.736

# return Efficacy for each item in the list
1. CCOP(=S)(OCC)SCn1nnc2ccccc2c1=O [Azinphos-ethyl]
2. O=C(Nc1cccc(C2=NCCN2)c1)Nc1cccc(C2=NCCN2)c1 [Imidocarb dipropionate, reference compound]
3. Cc1nc2n(c(=O)c1CCN1CCC(c3noc4cc(F)ccc34)CC1)CCCC2 [Risperidone]

[-105.247, -76.607, -13.373]

----------
molecular target: recombinant human AChE (Homo sapiens, UniProt P22303); assay: biochemical; settings: potency (IC50), Enzyme
For each of the compounds below, state its IC50.
One number for each entry, in µM.

Consider the reported IC50 for these compounds:
1. CCN(CC)CCOc1ccc2c(c1)C(=O)c1cc(OCCN(CC)CC)ccc1-2 [Tilorone, reference compound]: 4.18
2. CC/N=c1\cc2oc3cc(NCC)c(C)cc3c(-c3ccccc3C(=O)OCC)c-2cc1C [Rhodamine 6G]: 22.8

Each compound below has a reported value. Please supply its IC50.
1. CCOP(=O)(Sc1ccccc1)Sc1ccccc1 [Edifenphos]
2. [H]/N=C(\N/C(=N/[H])NCCCCCCNC(=N)NC(=N)Nc1ccc(Cl)cc1)Nc1ccc(Cl)cc1 [Chlorhexidine diacetate, reference compound]
3. CCOP(=S)(OCC)SCn1nnc2ccccc2c1=O [Azinphos-ethyl]
4. CCc1ccc(C(=O)C(C)CN2CCCCC2)cc1.Cl (centres unmarked) [Eperisone hydrochloride, reference compound]
5. CNC(=O)Oc1cc(C)cc(C(C)C)c1 [Promecarb]
6. CCN1CCCC1CNC(=O)c1cc(S(=O)(=O)CC)c(N)cc1OC (centres unmarked) [Amisulpride, reference compound]

4.79
54.6
42.8
27.4
0.48
14.3

----------
For each entry below, report its IC50 value.
target: AChE in SH-SY5Y spheroids (Homo sapiens, UniProt P22303); experiment: cell-based; settings: potency (IC50), SH-SY5Y spheroids (48 h)
One number for each entry, in µM.

These solved cases illustrate the format of a correct answer.
1. CCCCN(CCCC)SN(C)C(=O)Oc1cccc2c1OC(C)(C)C2 [Carbosulfan]: 0.68
2. Cc1nc2n(c(=O)c1CCN1CCC(C(=O)c3ccc(F)cc3)CC1)CCS2 [Setoperone, reference compound]: 13.7
3. CCOP(=S)(OCC)SCSc1ccc(Cl)cc1 [Carbophenothion]: 19.6
4. COP(N)(=S)Oc1ccccc1C(=O)OC(C)C (stereo not drawn) [Isocarbophos]: 41.5

Give IC50 for each of the items listed below.
1. CCOP(=S)(OCC)Oc1ccc([N+](=O)[O-])cc1 [Parathion]
2. COc1ccc(C(=O)NCc2ccc(OCCN(C)C)cc2)cc1OC.Cl [Itopride hydrochloride, reference compound]

[10.6, 11.2]
